The measured values listed here are drawn from the Human Domainome abundance scans (Beltran et al. 2025).

B1: Nuclear receptor subfamily 4 group A member 2, residues 260 to 336; numbered along this chain, P43354 (parent)
chain: EGLCAVCGDNAACQHYGVRTCEGCKGFFKRTVQKNAKYVCLANKNCPVDKRRRNRCQYCRFQKCLAVGMVKEVVRTD

- Variants of: B1
- Measurement Notes: abundance fitness (aPCA) (normalised: wild type 0, dead -1); higher = more abundant; growth selection in yeast, the domain comes from the species named
- Run Conditions: Homo sapiens
Reported Metric: abundance fitness
Number, no unit, nothing else.

Quick check: abundance fitness of V48W ?
-0.258

Quick check: abundance fitness of F61W ?
-0.05

Quick check: abundance fitness of C59V ?
-0.919

Quick check: abundance fitness of V74W ?
-0.208

Quick check: abundance fitness of V48L ?
-0.175

Quick check: abundance fitness of Q14A ?
0.207

Quick check: abundance fitness of K44T ?
-0.028

Quick check: abundance fitness of K71L ?
-0.078

Quick check: abundance fitness of G17I ?
0.092

Quick check: abundance fitness of R75V ?
0

Quick check: abundance fitness of Q62W ?
-0.345

Quick check: abundance fitness of A66R ?
-0.114

Quick check: abundance fitness of C13R ?
-0.103

Quick check: abundance fitness of A42V ?
-0.09

Quick check: abundance fitness of L41A ?
-0.025

Quick check: abundance fitness of C40W ?
-0.761

Quick check: abundance fitness of K50F ?
-0.055

Quick check: abundance fitness of M69C ?
-0.247

Quick check: abundance fitness of Q57Y ?
-0.158

Quick check: abundance fitness of V73W ?
-0.104

Quick check: abundance fitness of R19V ?
0.005

Quick check: abundance fitness of A36G ?
-0.093

Quick check: abundance fitness of N54R ?
-0.15

Quick check: abundance fitness of V73A ?
-0.258

Quick check: abundance fitness of Q62N ?
-0.38

Quick check: abundance fitness of V67R ?
-0.134

Quick check: abundance fitness of K71A ?
0.008

Quick check: abundance fitness of G26D ?
-0.062

Quick check: abundance fitness of C21A ?
-0.632

Quick check: abundance fitness of D77S ?
-0.124

Quick check: abundance fitness of A36Q ?
-0.085

Quick check: abundance fitness of V73C ?
-0.131

Quick check: abundance fitness of K29A ?
0.014

Quick check: abundance fitness of V74S ?
-0.101

Quick check: abundance fitness of K50R ?
-0.193

Quick check: abundance fitness of H15R ?
-0.137

Quick check: abundance fitness of R30W ?
-0.16

Quick check: abundance fitness of V70F ?
-0.095

Quick check: abundance fitness of R55D ?
-0.065

Quick check: abundance fitness of K29W ?
-0.253

Quick check: abundance fitness of V67M ?
-0.035

Quick check: abundance fitness of V39L ?
-0.153

Quick check: abundance fitness of R75E ?
0.094

Quick check: abundance fitness of R19C ?
0.009

Quick check: abundance fitness of V48S ?
-0.091

Quick check: abundance fitness of K25Q ?
-0.019
